- systemUnderTest: mannose receptor (MR) on CHO-MR cells (Mus musculus, UniProt Q61830)
- Construct: expressed in transfected cells; host or cells: CHO (CHO-MR overexpression line, gift of Luisa Martinez-Pomares)
- Sequence (Q61830 20-1456): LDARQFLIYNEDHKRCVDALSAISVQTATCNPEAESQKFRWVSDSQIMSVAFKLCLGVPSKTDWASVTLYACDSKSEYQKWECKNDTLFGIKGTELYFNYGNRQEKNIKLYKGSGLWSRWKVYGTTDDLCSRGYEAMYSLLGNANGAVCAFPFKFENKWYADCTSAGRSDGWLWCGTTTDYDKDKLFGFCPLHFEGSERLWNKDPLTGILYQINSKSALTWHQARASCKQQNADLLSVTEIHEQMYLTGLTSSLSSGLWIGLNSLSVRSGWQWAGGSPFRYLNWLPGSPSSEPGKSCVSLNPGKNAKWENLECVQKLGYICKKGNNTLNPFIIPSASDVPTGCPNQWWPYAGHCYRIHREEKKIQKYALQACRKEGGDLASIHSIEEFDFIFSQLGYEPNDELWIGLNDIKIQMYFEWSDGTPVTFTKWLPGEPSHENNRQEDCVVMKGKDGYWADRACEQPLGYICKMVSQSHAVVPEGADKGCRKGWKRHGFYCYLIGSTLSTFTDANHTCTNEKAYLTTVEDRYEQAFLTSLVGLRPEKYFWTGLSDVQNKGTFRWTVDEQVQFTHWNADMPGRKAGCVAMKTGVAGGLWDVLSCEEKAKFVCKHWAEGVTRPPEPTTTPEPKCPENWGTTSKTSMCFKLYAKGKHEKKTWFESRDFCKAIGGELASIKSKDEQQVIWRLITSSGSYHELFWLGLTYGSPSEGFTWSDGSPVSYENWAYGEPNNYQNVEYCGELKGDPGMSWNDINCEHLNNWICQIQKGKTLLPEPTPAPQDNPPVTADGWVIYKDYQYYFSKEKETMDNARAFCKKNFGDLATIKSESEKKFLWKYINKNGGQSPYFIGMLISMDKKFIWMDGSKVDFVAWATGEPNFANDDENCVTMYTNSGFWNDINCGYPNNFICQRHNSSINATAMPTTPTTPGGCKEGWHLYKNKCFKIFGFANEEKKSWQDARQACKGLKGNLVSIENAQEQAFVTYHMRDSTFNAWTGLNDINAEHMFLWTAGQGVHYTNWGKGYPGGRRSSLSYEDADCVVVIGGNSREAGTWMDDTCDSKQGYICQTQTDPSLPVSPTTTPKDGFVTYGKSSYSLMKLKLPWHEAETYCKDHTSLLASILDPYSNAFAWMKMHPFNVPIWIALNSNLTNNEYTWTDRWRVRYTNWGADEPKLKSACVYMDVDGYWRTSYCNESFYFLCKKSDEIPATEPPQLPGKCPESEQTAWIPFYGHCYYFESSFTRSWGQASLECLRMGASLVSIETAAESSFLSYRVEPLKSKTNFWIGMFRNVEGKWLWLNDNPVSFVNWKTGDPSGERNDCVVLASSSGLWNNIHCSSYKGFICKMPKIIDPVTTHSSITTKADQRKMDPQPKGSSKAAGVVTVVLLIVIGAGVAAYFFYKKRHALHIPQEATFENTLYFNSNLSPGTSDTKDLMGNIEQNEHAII
- measurementDescription: Glyco-PAINT-APP single-molecule glycan binding on CHO-MR cells
- runParameters: Suppl. Fig 9, glycan SLP, CHO-MR + CytD, median
sCy5 = sulfo-Cy5
# kon per record follows
Give the quantity in evts μm−2 sec−1, number only.

Here's what some known entries look like.
Ac-Lys(triMan)-Gly-Lys(triMan)-TEG-Asp-Glu-Val-Ser-Gly-Leu-Glu-Gln-Leu-Glu-Ser-Ile-Ile-Asn-Phe-Glu-Lys-Leu-Ala-Ala-Ala-Ala-Ala-Lys(sCy5)-NH2 (DEVSGLEQLESIINFEKLAAAAAK; two Lys(triMan), TEG, sulfo-Cy5, C-amide; printed: Asp-Glu-Val-Ser-Gly-Leu-Glu-Gln-Leu-Glu-Ser-Ile-Ile-Asn-Phe-Glu-Lys-Leu-Ala-Ala-Ala-Ala-Ala-Lys) [2 Tri(5), bivalent trimannosylated OVA SLP with sulfo-Cy5] :: 4.6
Ac-Lys(triMan)-TEG-Asp-Glu-Val-Ser-Gly-Leu-Glu-Gln-Leu-Glu-Ser-Ile-Ile-Asn-Phe-Glu-Lys-Leu-Ala-Ala-Ala-Ala-Ala-Lys(sCy5)-NH2 (DEVSGLEQLESIINFEKLAAAAAK; Ac-Lys(triMan)-TEG, sulfo-Cy5, C-amide; printed: Asp-Glu-Val-Ser-Gly-Leu-Glu-Gln-Leu-Glu-Ser-Ile-Ile-Asn-Phe-Glu-Lys-Leu-Ala-Ala-Ala-Ala-Ala-Lys) [1 Tri(4), monovalent trimannosylated OVA SLP with sulfo-Cy5] :: 7.1

Shifting focus to the substance that follows.
Sample Ac-Lys(Man)-Lys(Man)-Lys(Man)-Lys(Man)-Lys(Man)-Lys(Man)-TEG-Asp-Glu-Val-Ser-Gly-Leu-Glu-Gln-Leu-Glu-Ser-Ile-Ile-Asn-Phe-Glu-Lys-Leu-Ala-Ala-Ala-Ala-Ala-Lys(sCy5)-NH2 ({Ac-K(Man)-K(Man)-K(Man)-K(Man)-K(Man)-K(Man)-TEG}-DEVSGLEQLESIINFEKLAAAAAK(sCy5)-NH2) [6 Mono(3), hexavalent monomannosylated OVA SLP with sulfo-Cy5] ; kon observed: 8.9
